The measured values listed here are drawn from PubChem BioAssay (NCI).

# TEST DETAILS: NCI Yeast Anticancer Drug Screen. Data for the sgs1 mgt1 strain (AID 161);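 also: 0% = growth of cultures given vehicle only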
# REPORTED CONDITIONS: S. cerevisiae sgs1 mgt1 strain, at 50.0 µM
# Description: Growth inhibition of yeast strains with defined genetic alterations is measured as a screen for potential anti-cancer activity. Selected strains with alterations in DNA damage repair or cell cycle control were exposed to compounds and growth inhibition was measured relative to vehicle treated controls. The strain used in this assay is sgs1 mgt1
Compounds without any hit were thinned out: in the full panel of roughly 79,000, 15% have a hit. Active and inactive are the calls of the source. Rule as the data show it: active = growth inhibition above about 70%; inactive = the rest.
Outcome codes: label 1 = active, label 0 = inactive

>>> class("CSc1ccc(/C=C/c2ccnc3ccccc23)cc1")
"label 0"
>>> class("O=[N+]([O-])c1cccc(S/N=C/c2ccccc2)c1")
"label 1"
>>> class("CC(C(=O)O)C(C)(O)C(C)(C)C (configuration not stated)")
"label 0"
>>> class("CC1OC2=N[C@@H]1C(=O)N[C@@H](C(C)C)C1=N[C@H](C(=O)N[C@@H](C(C)C)C3=N[C@H](C(=O)N[C@@H](C(C)C)C4=N[C@H](C(=O)N[C@H]2C(C)C)C(C)O4)C(C)O3)C(C)O1 (some centres not stated)")
"label 0"
>>> class("Cc1cn(CCCn2cnc3c(=O)[nH]cnc32)c(=O)[nH]c1=O")
"label 0"
>>> class("CCCCOC(=O)C12CCCCC1O2 (configuration not stated)")
"label 0"
>>> class("c1ccc(C(Sc2c[nH]c3ccccc23)(c2ccccc2)c2ccccc2)cc1 (tested in a mixture with another compound)")
"label 0"

* * *

growth inhibition for assorted compounds
# TEST DETAILS: NCI Yeast Anticancer Drug Screen. Data for the mlh1 rad18 strain (AID 175)
# REPORTED CONDITIONS: S. cerevisiae mlh1 rad18 strain growth inhibition; at 50.0 µM; hits give high values
This is part of a sample that, as a whole, favours compounds with a hit. Of some 79,000 tested, about 15% had one in any assay.
OBSERVED PROPERTY: growth inhibition (%)

>>> test_value("CC(=O)OC(COC(c1ccccc1)(c1ccccc1)c1ccccc1)C(OC(C)=O)C(COC(c1ccccc1)(c1ccccc1)c1ccccc1)OC(C)=O (stereo not given)")
-15.1
>>> test_value("CCCCN(C=O)c1ccccc1")
27.9
>>> test_value("CCN(CC)CCCNc1cc(O)cc2cccnc12")
-0.35
>>> test_value("CC(C)SCC(N)C(=O)O (stereo not given)")
-15.8
>>> test_value("NC(=O)c1ccc[n+](CC(=O)Nc2ccccc2)c1")
3.8
>>> test_value("Nc1nc2ncn(CC(O)COC(=O)c3ccccc3)c2c(=O)[nH]1 (stereo not given)")
39.2
>>> test_value("Nc1[nH]c(=S)nc2nc3c(c(-c4ccccc4)c12)CCCC3")
-14.4
>>> test_value("O=C(Nc1ccccc1Cl)c1ccc(F)cc1")
-3.85
>>> test_value("NC(=O)C1(c2cccs2)CCCC1")
26.2
>>> test_value("O=c1[nH]c(-c2cccc(F)c2)nc2ccccc12")
10.2
>>> test_value("O=C(CN1CCCCC1)c1ccc(CCc2ccc(C(=O)CN3CCCCC3)cc2)cc1")
32.2
>>> test_value("S=C(NCc1ccccc1)Nc1ncn[nH]1")
3.8
>>> test_value("COC1(C)CNCC(C)(C)NC(=O)C(C)(OC)CNCC(C)(C)NC1=O (stereo not given)")
-19.6
>>> test_value("CN1c2ccccc2SC1(C)CCC(=O)O (stereo not given)")
7.65
>>> test_value("O=C(Cc1ccccc1)N(Cc1ccccc1)Cc1ccccc1")
97.9
>>> test_value("COC1/C=C\\OC2(C)Oc3c(C)c(O)c4c(c3C2=O)C(=O)C(Br)=C(NC(=O)/C(C)=C\\C=C/C(C)C(O)C(C)C(O)C(C)C(OC(C)=O)C1C)C4=O (stereo not given)")
20.5
>>> test_value("NC(=O)c1ccccc1C(=O)c1ccccc1")
-10.3
>>> test_value("CC(C)CCC[C@@H](C)[C@H]1CC[C@H]2[C@@H]3CC[C@H]4C[C@@H](CCC=C(c5cc(Cl)c(O)c(C(=O)O)c5)c5cc(Cl)c(O)c(C(=O)O)c5)CC[C@]4(C)[C@H]3CC[C@]12C")
-1.75
>>> test_value("O=Cc1cc(O)ccc1[N+](=O)[O-]")
16.1
>>> test_value("BrC1CC1(c1ccccc1)c1ccccc1 (stereo not given)")
-0.3
>>> test_value("C=NNC(=O)c1ccncc1")
5.9
>>> test_value("O=C(CSSCC(=O)Nc1ccc(Br)cc1)Nc1ccc(Br)cc1")
26.4
>>> test_value("O=C(C[N+](=O)[O-])OCc1ccccc1")
4.65
>>> test_value("CCc1ccccc1NC(=O)Nc1ccc(C(=O)O)c(O)c1")
26.4
>>> test_value("COc1cc(C=Nc2ccc(Cl)cc2)ccc1O")
-43.3
